# subject.of.test: CGRP1 receptor (CRLR/RAMP1 complex) of human neuroblastoma SK-N-MC cells (human, UniProt Q16602 23-461; O60894 27-148)
# Sequence (Q16602 23-461, chain 1 of 2): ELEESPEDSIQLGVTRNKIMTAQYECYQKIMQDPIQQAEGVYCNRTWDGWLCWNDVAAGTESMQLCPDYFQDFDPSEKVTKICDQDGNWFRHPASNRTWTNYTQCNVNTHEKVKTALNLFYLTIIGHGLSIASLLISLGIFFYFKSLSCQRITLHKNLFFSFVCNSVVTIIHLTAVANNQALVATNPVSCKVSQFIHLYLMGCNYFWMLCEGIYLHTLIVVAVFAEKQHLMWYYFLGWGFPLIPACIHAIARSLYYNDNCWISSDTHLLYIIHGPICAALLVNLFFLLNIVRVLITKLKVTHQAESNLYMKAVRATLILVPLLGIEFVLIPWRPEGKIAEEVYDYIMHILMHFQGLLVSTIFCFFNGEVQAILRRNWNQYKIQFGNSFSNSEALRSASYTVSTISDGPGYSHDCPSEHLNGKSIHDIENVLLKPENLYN
# Sequence (O60894 27-148, chain 2 of 2): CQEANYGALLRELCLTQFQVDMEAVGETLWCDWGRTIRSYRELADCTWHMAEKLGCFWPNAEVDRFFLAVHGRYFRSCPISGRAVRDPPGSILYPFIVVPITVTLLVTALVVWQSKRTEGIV
# test: cell-based or functional assay
octavalent 20 kDa PEG = 20 kDa PEG with eight arms, each linked to one peptide copy through Cys
Listed here: items and their measured IC50.
The figure you give is taken to be in nM; do not add the unit.

Q) I'd like to know its IC50. The binder in question is Ac-WVTHRLAGLLSRSGGVVRC(20 kDa branched MeO‑PEG2)NFVPTDVGPFAF-NH2 [SEQ ID NO 768]
A) 23.8

Q) What do we get for WVTHXLAGLLSXSGGVVRKNFVPTDVGPFAF (Ac-WVTH[Cit]LAGLLS[Cit]SGG VVRKNFVPTDVGPFAF-amide) [SEQ ID NO 790] ?
A) 1.7

Q) What do we get for Ac-WVTHRLAGLLSRSGGVVRC(octavalent 20 kDa PEG)NFVPTDVGPFAF-NH2 (also: eight peptides linked via Cys to one octavalent 20 kDa PEG) [SEQ ID NO 783] ?
A) 1.4

Sourced from patent US20080020978A1
